Octet binding assay response: recorded values
target: T1, pTAKLDEESILKQ-Biotin; assay: Octet (BLI), fixed reagent concentration;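 note: octet binding of candidate PTM-specific affinity reagents, each at one fixed concentration, to biotinylated phospho-Thr or phospho-Ser peptides, with unmodified biotinylated peptides serving as controls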
T1 peptide: [pT]AKLDEESILKQ-{Biotin′}
Primed or numbered codes have the meaning given here. Where no end group is shown, it is not given here. [ ]: non-standard residue; d: D form. pT = C[C@@H](OP(=O)(O)O)[C@H](N)C(=O)O; Biotin′ = not defined here
# answer = number (no unit)

INSERT INTO assay_data (binder, quantitykind, assayresult) VALUES
  ('PM23 (Human/Scp1) (other) MAFEELRVQAENARLDMHFKLKEDHEKIQHLQEEYKKEVNDKENQVSLLLIQRTEKENKMKDLTFLLEESRDKVNQLEDKTKLQDENVKELNKKKDHLTSELEDTKMSLQRSMNTQKALEEDLQIATKTIYQLTEEKEAQMEEFNKAKTDHSFMVTELKATTCTLEELLRTEQQRLVKNED', 'Octet binding assay response', 0.2),
  ('PM02 (Human/14-3-3 protein theta) (other) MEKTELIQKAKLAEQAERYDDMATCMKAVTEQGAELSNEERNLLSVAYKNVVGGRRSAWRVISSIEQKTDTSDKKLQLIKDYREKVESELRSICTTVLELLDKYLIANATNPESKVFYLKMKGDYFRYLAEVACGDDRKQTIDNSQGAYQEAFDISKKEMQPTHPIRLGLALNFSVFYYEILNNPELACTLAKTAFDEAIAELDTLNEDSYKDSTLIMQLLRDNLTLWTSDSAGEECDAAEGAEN', 'Octet binding assay response', 0.3),
  ('PM05 (Human/14-3-3 protein beta/alpha) (other) MTMDKSELVQKAKLAEQAERYDDMAAAMKAVTEQGHELSNEERNLLSVAYKNVVGARRSSWRVISSIEQKTERNEKKQQMGKEYREKIEAELQDICNDVLELLDKYLIPNATQPESKVFYLKMKGDYFRYLSEVASGDNKQTTVSNSQQAYQEAFEISKKEMQPTHPIRLGLALNFSVFYYEILNSPEKACSLAKTAFDEAIAELDTLNEESYKDSTLIMQLLRDNLTLWTSENQGDEGDAGEGEN', 'Octet binding assay response', 0.2),
  ('PM21 (Human/PHF3) (other) MTFLARLNFIWKGFINMPSVAKFVTKAYPVSGSPEYLTEDLPDSIQVGGRISPQTVWDYVEKIKASGTKEICVVRFTPVTEEDQISYTLLFAYFSSRKRYGVAANNMKQVKDMYLIPLGATDKIPHPLVPFDGPGLELHRPNLLLGLIIRQKL', 'Octet binding assay response', 0.3),
  ('PM10 (Human/MCPH1) (other) MSGRGKKPTRTLVMTSMPSEKQNVVIQVVDKLKGFSIAPDVCETTTHVLSGKPLRTLNVLLGIARGCWVLSYDWVLWSLELGHWISEEPFELSHHFPAAPLCRSECHLSAGPYRGTLFADQPAMFVSPASSPPVAKLCELVHLCGGRVSQVPRQASIVIGPYSGKKKATVKYLSEKWVLDSITQHKVCAPENYLLSQ', 'Octet binding assay response', 0.3);

Value of measured Octet binding assay response for the entry PM19 (Human/RBM15) (other) MAPVASASPKLCLAWQGMLLLKNSNFPSNMHLLQGDLQVASSLLVEGSTGGKVAQLKITQRLRLDQPKLDEVTRRIKVAGPNGYAILLAVPGSSDSRSSSSSAASDTATSTQRPLRNLVSYLKQKQAAGVISLPVGGNKDKENTGVLHAFPPCEFSQQFLDSPAKALAKSEEDYLVMIIVRGFGFQI : 0.3

Value of measured Octet binding assay response for the entry PM03 (Human/14-3-3 protein eta) (other) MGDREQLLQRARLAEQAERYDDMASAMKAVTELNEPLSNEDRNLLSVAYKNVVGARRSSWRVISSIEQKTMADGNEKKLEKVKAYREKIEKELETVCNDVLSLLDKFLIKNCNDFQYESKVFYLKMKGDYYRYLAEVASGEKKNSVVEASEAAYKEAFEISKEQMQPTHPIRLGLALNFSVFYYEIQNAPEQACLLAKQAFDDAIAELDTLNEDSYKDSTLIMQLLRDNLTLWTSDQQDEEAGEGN : 0.2
